Test system: CCRF-CEM leukemia
protocol_notes: NCI-60 one-dose screen, 48 h (100 = growth as untreated, 0 = no growth, -100 = all killed)
conditions: 10 µM unless noted
About 83,000 compounds went through this panel and 20% of them were active in at least one assay; those are over-represented in the sample as a whole.
growth under 70% gets Y, anything at or over 70% gets N.

smiles_input | system_name | class_label
CC1=C(/C=C/C(C)=C/C=C/C(C)=C/C(=O)Nc2ccc(O)cc2)C(C)(C)CCC1 | CCRF-CEM leukemia | Y
N#C/C(=C1C=C/C(=N/O)C(Br)=C/1)c1ccccc1 | CCRF-CEM leukemia | Y
O=C(Cc1cccc2ccccc12)N/N=C/c1ccc2c(c1)CCC2 | CCRF-CEM leukemia | Y
O=C=NC(c1ccccc1)(c1ccccc1)c1ccccc1 | CCRF-CEM leukemia | N
c1ccc(N(c2ccccc2)c2ccccc2)cc1 | CCRF-CEM leukemia | N
CN(Cc1ccccc1)Cc1ccccc1 | CCRF-CEM leukemia | N

* * *

Test system: PC-3 prostate
protocol_notes: NCI-60 one-dose screen, 48 h (100 = growth as untreated, 0 = no growth, -100 = all killed)
conditions: 100 µM
The panel holds about 83,000 compounds, 20% with a hit somewhere; the sample as a whole holds those more often. The source made the active and inactive calls. How the source made its calls: active means growth percent below 10; inactive means the rest.
# growth annotations

molecule | growth
CC#C[C@]1(O)CC[C@H]2[C@@H]3CCC4=CC(=O)CCC4=C3[C@@H](c3ccc4c(c3)OCO4)C[C@@]21C | 0.372% (active)
Cc1[nH]c(-c2nc3ccccc3[nH]2)c(C)c1C(=O)NC(C)C1CCCCC1 (centres undefined) | -58.3% (active)
COc1ccc(Cl)cc1C(=O)NCCc1ccc(S(=O)(=O)NC(=O)NC2CCCCC2)cc1 | 52.8% (inactive)
O=C(O)c1sccc1O | 23% (inactive)

* * *

# growth annotations
System: NCI-H226 lung
protocol_notes: NCI-60 one-dose screen, 48 h (100 = growth as untreated, 0 = no growth, -100 = all killed)
conditions: 10 µM
About 83,000 compounds went through this panel and 20% of them were active in at least one assay; those are over-represented in the sample as a whole. Activity calls are given as the source filed them. The calls were made as follows: active = growth percent below 10; inactive = the rest.

smiles_input | growth
CC(C)(C)c1cc(NC(=O)Cc2ccc(-c3cnc4cc(-c5cnn(CCN6CCOCC6)c5)ccc4n3)cc2)no1 | 10% (inactive)
CC1(C)OB(c2ccc(Cn3cc(F)c(=O)[nH]c3=O)cc2)OC1(C)C | 96.9% (inactive)
CC#C[C@]1(O)CC[C@H]2[C@@H]3CCC4=CC(=O)CCC4=C3[C@@H](c3ccc4c(c3)OCO4)C[C@@]21C | 85.2% (inactive)
CNC(=O)c1cc(Oc2ccc(CC(=O)Nc3cc(C(C)(C)C)nn3C)cc2)ccn1 | 61.6% (inactive)
CCc1ccccc1-n1c(N)c(C#N)c(-c2ccc(OC)c(OC)c2)c(C#N)c1=O | 109% (inactive)

* * *

System: EKVX NSCLC
protocol_notes: NCI-60 one-dose screen, 48 h (100 = growth as untreated, 0 = no growth, -100 = all killed)
conditions: 10 µM unless noted
Compounds without any hit were thinned out: in the full panel of roughly 83,000, 20% have a hit. The source made the active and inactive calls. How the source made its calls: active means growth percent below 10; inactive means the rest.
# growth annotations

compound | growth
O=CC(O)C(O)C(O)CO (configuration not stated) | 114% (inactive)
Clc1nc(Oc2ccccc2)nc(-c2cn(-c3ccccc3)c3ccccc23)n1 | 81.3% (inactive)
COc1cc(C(=O)N/N=C/c2ccc(N(C)C)cc2)cc(OC)c1OC | 75.7% (inactive)
O=C1c2c(O)cc(O)cc2OC(c2ccc(O)c(O)c2)C1O (configuration not stated) | 119% (inactive)
CC(=O)C(/C=N/C(N)=O)=C(/C)O | 108% (inactive)
CC(O)(CC(=O)CC(=O)c1ccccc1)c1ccccc1 (configuration not stated) | 103% (inactive)
Cc1ccc(S(=O)(=O)NCN2C(=O)c3ccccc3C2=O)cc1 | 119% (inactive)
O=C(O)c1cc(C(=O)O)cc([N+](=O)[O-])c1 | 106% (inactive)
C1CCCCNCCC1 | 99.8% (inactive)
Cc1n[nH]c(=O)n(/N=C\c2c[nH]c3ccccc23)c1=O | 109% (inactive)
Nc1ccn(C2OC(CO)C(O)C2O)c(=O)n1 (configuration not stated) | 99.2% (inactive) [middle of 4 runs]
Cc1ccc(-c2noc(CC(=O)c3ccc([N+](=O)[O-])cc3)n2)cc1 | 95.9% (inactive)
